System: L1210 leukemia ip in BDF1 mice, survival T/C
Assay Details: NCI In Vivo Anticancer Drug Screen. Data for tumor model L1210 Leukemia (intraperitoneal) in B6D2F1 (BDF1) mice
Setup Conditions: endpoint: mean survival time; dose: 100.0 mg/kg/injection; schedule: Q01DX001 (ip); vehicle: saline; higher = longer survival
Toxic doses and inconclusive results are not listed. Square brackets hold non-standard residues; d marks the D form. Peptide text beside a SMILES is read from it. ξ: configuration not given here. Ac5c = NC1(C(=O)O)CCCC1; ξS = NC(CO)C(=O)O

Compound: O=C1NC(CCO)C(=O)NC1CCO (stereo not drawn)
T/C: 100 % of control

Compound: CCCCOB(OCCCC)c1cccc(B(OCCCC)OCCCC)c1
T/C: 89 % of control

Compound: O=C1OCCC1[P+](c1ccccc1)(c1ccccc1)c1ccccc1 (stereo not drawn)
T/C: 88 % of control

Compound: NC(CO)C(=O)NC1(C(=O)O)CCCC1 (stereo not drawn) (H-[ξS]-[Ac5c]-OH)
T/C: 100 % of control

Compound: CC(=O)CC(C)(C)C
T/C: 102 % of control

Compound: O=C(CCCC(=O)N/N=C/c1ccccc1Cl)N/N=C\c1ccccc1Cl
T/C: 100 % of control

Compound: CSc1ccc(C(=O)C(CO)NC(C)=O)cc1 (stereo not drawn)
T/C: 110 % of control

Compound: CCN(CC)CCOC(=O)c1[nH]cnc1/N=N\N(C)C
T/C: 104 % of control

Compound: CCOC(=O)/C(=C/c1ccc(C)cc1)P(=O)(OCC)OCC
T/C: 101 % of control

Compound: CCNc1ncnc2c1cnn2C
T/C: 95 % of control

Compound: N#CCC1(O)c2ccccc2-c2ccccc21
T/C: 98 % of control

Compound: O=C1NCC2(CCCCCC2)O1
T/C: 104 % of control

Compound: N#Cc1cn(-c2ccc(Cl)cc2)c2ncccc12
T/C: 100 % of control
